- Tgt: recombinant human ALK5 (TGF-βR1) protein (Homo sapiens, UniProt P36897)
- Sequence (P36897 34-503): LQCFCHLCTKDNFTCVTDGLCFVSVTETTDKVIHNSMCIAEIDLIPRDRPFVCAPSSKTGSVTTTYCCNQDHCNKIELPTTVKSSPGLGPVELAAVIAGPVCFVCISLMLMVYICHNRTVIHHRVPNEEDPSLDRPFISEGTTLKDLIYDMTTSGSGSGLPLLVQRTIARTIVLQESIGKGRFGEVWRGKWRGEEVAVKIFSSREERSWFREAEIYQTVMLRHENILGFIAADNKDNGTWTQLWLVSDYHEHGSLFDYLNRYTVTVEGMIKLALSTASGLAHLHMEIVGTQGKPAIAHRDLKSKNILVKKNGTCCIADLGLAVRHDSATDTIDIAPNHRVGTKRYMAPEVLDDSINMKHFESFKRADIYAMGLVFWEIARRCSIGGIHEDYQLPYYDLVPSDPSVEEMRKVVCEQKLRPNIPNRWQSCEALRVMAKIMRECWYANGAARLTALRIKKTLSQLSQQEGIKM
- Procedure Details: Biochemical ALK5 (TGF-βR1) assay to measure pKi (LANCE Ultra ULight kinase assay)
- Condition Context: apparent pKi, converted from pIC50 using the Cheng-Prusoff equation
Parameter Ki: see the listing below.

Here is how some molecules turned out for Ki.
For the molecule COCC(C)(CNc1cnc2ccc(-c3c[nH]nc3-c3cc(Cl)ccc3F)nc2c1)N1CCN(C(C)C)CC1 (stereo not shown) , report Ki. 0.398 to 3.16 nM

Provide only the value of recorded Ki for Fc1ccc(Cl)cc1-c1[nH]cnc1-c1ccc2ncc(N3CCCNCC3)cc2n1 0.398 to 3.16 nM

Name the recorded Ki of the item Fc1ccc(Cl)cc1-c1n[nH]cc1-c1ccc2ncc(-c3cn(Cc4c[nH]cn4)nn3)cc2n1 in your answer. ≤ 0.0316 nM

Consider the molecule NCCn1cc(-c2cnc3ccc(-c4nc[nH]c4-c4cc(Cl)ccc4F)nc3c2)cn1 and give its recorded Ki. 0.0398 to 0.316 nM

# return recorded Ki for entry COC(=O)CC1CN(CCNc2cnc3ccc(-c4c[nH]nc4-c4cc(Cl)c(F)cc4F)nc3c2)CCN1 (stereo not shown) 0.398 to 3.16 nM

---
Supply recorded Ki for CN1CCC(N(C)c2cnc3ccc(-c4c[nH]nc4-c4cc(Cl)ccc4F)nc3c2)CC1 here. 0.0398 to 0.316 nM

Consider the molecule NC1CCC(c2cnc3ccc(-c4c[nH]nc4-c4cc(Cl)ccc4F)nc3c2)CC1 (stereo not shown) and give its recorded Ki. 3.98 to 31.6 nM

Determine from records and report Ki for Fc1ccc(Cl)cc1-c1n[nH]cc1-c1ccc2ncc(NCC3CCNC3)cc2n1 (stereo not shown) 0.0398 to 0.316 nM

Using known records, supply Ki for CC1(C)CCCN1CCNc1cnc2ccc(-c3c[nH]nc3-c3cc(Cl)c(F)cc3F)nc2c1 0.0398 to 0.316 nM

State its Ki: Fc1cc(F)c(-c2n[nH]cc2-c2ccc3ncc(-c4cn(Cc5c[nH]cn5)nn4)cc3n2)cc1Cl 0.0398 to 0.316 nM

Read the entry N[C@@H]1CCCC[C@H]1n1cc(-c2cnc3ccc(-c4nc[nH]c4-c4ccc(F)c(F)c4)cc3c2)cn1 and write its reported Ki. 0.0398 to 0.316 nM

Give the reported Ki for this molecule. C[C@@H]1CN(CCNc2cnc3ccc(-c4nc[nH]c4-c4cccc(Cl)c4)cc3c2)C[C@H](C)N1 0.398 to 3.16 nM

Provide measured Ki value, entry: Fc1ccc(-c2[nH]cnc2-c2ccc3ncc(NCCN4CCNCC4)cc3c2)cc1F 3.98 to 31.6 nM

Kindly indicate its recorded Ki. Item: CN1CCN(C2CCN(c3cnc4ccc(-c5c(-c6cc(Cl)ccc6F)nc6ccccn56)cc4c3)CC2)CC1 0.0398 to 0.316 nM

Provide Ki value for the following molecule: Fc1ccc(Cl)cc1-c1n[nH]cc1-c1ccc2ncc(-c3cn[nH]c3)cc2c1 0.0398 to 0.316 nM

Dear colleague, please send me the reported Ki for Fc1ccc(Cl)cc1-c1n[nH]cc1-c1ccc2ncc(-c3ncc4n3CCN4)cc2n1 when you can. 0.398 to 3.16 nM

Specify Ki for Fc1cc(F)c(-c2n[nH]cc2-c2ccc3ncc(-c4nnn5c4NCC5)cc3n2)cc1Cl and stop. 0.0398 to 0.316 nM

Name the recorded Ki of the item O=C(O)[C@@H]1CN(c2cnc3ccc(-c4nc[nH]c4-c4cc(Cl)ccc4F)nc3c2)CCN1 in your answer. 0.398 to 3.16 nM

Answer with the recorded Ki of Fc1cc(F)c(-c2n[nH]cc2-c2ccc3ncc(-c4cnn5c4CNCC5)cc3n2)cc1Cl only. 0.0398 to 0.316 nM
